tested-system: T1, C-terminal hexahistidine-tagged FPR (human, UniProt P21462 1-350)
T1 construct: Construct limits and junction are not described; also called FPR:C-H6; C-H6:FPR
T1 sequence: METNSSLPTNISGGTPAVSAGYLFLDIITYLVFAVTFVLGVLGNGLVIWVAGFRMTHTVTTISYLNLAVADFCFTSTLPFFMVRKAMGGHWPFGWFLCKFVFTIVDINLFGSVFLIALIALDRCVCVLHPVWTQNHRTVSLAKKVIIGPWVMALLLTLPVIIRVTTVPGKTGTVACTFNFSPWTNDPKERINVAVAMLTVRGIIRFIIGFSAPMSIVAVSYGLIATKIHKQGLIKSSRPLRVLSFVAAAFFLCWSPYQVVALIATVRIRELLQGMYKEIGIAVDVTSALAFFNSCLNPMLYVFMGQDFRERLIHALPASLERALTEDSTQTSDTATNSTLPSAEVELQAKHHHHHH
assay-summary: soluble receptor in detergent, spectrofluorimetry
No end group written: not given here. *: point of attachment. For = O=C*
readout-label: Kd (nM)

* For-MLFK (also: FITC conjugated, site not given here, everywhere else it is fMLFK-FITC; also called fMLFK-FITC; fluorescent ligand) [formyl-MLFK-FITC] | 10
